# target of assay: General transcription and DNA repair factor IIH helicase subunit XPD (Homo sapiens); also: in the data inactive means no Kd found up to 30 µM
# Sequence (P18074 whole entry): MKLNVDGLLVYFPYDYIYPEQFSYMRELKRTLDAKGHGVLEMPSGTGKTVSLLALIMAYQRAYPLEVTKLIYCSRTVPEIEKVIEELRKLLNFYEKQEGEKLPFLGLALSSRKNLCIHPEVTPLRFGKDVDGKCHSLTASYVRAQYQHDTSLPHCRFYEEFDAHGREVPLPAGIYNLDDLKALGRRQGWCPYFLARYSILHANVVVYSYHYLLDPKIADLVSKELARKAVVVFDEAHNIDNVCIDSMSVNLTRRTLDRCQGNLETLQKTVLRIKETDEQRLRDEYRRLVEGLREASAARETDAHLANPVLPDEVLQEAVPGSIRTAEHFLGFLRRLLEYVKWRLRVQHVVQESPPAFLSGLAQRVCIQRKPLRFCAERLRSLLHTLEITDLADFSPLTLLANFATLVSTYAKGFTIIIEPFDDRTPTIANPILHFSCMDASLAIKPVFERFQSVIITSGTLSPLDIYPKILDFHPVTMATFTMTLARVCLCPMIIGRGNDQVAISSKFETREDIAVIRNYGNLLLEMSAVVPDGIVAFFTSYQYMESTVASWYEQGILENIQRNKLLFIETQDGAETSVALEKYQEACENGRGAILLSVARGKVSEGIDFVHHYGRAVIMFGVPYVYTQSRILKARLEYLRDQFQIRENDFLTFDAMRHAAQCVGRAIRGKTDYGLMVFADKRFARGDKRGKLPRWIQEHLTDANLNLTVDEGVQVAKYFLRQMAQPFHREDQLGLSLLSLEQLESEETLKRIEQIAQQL
# assay conditions: read-out: Kd apparent; k-562, colo 205, sk-n-be(2) and mv-4-11
Counter-ions that a name gives are not always drawn. Active and inactive are the calls of the source.
Answer with one of the outcomes given here: 1 (yes) for active, 0 (no) for inactive

Could you please tell me the result logged for CC(=O)NCC(=O)N1[C@@H]2CC[C@H]1c1ccc(Nc3ncc(C(F)(F)F)c(NC4CCC4)n3)cc12 [PF-03814735] in this assay?
0 (no)

Hello, I am checking results. What call was entered for CCS(=O)(=O)N1CCN(c2ccc(Nc3ncc(C(N)=O)c(NC4CC4)n3)cc2)CC1 [Cerdulatinib Hydrochloride] ?
0 (no)

# fetch the recorded call for Cc1csc(-c2nnc(Nc3ccc(Oc4ncccc4-c4ccnc(N)n4)cc3)c3ccccc23)c1 [AMG-900] here
0 (no)

Identify the outcome logged in this assay for the compound shown: Cn1cc(-c2cnc3ccc4ccc(CS(=O)(=O)NCc5ccccn5)cc4c(=O)c3c2)cn1 [MK-8033]
0 (no)

Each compound tested received a call. Report the one for Cc1nc(Nc2n[nH]c3c2CN(C(=O)N[C@H](CN(C)C)c2ccccc2)C3(C)C)c2sccc2n1 [PF-03758309] .
1 (yes)

Hello, I am checking results. What call was entered for COc1cc2c(Nc3ccc(Cl)c(Cl)c3F)ncnc2cc1OC[C@@H]1C[C@@H]2CN(C)C[C@@H]2C1 [TESEVATINIB] ?
0 (no)

What call does the record list for O=c1[nH]ccc2cc(OC3CCNCC3)ccc12 [SAR-407899 FREE BASE] ?
0 (no)

Entry COCc1c(-c2ccc(NC(=O)Nc3cc(C(F)(F)F)ccc3F)c(F)c2)c2c(N)ncnn2c1CN1CCOCC1 : call = ?
0 (no)

Would you mind telling me which call this test gave C=CC(=O)N1CCC[C@H](n2c(=O)n(-c3ccc(Oc4ccccc4)cc3)c3c(N)ncnc32)C1 ?
0 (no)

Hello, I am checking results. What call was entered for COCC(=O)NC/C=C/c1ccc2ncnc(Nc3ccc(Oc4ccc(C)nc4)c(C)c3)c2c1 [CP-724714] ?
0 (no)

Could you please tell me the result logged for Cn1cnc2c(F)c(Nc3ccc(Br)cc3F)c(C(=O)NOCCO)cc21 [BINIMETINIB] in this assay?
0 (no)

I would be grateful if you could indicate the recorded call for COc1cc([C@@H]2c3cc4c(cc3[C@H](O)[C@H]3COC(=O)[C@@H]23)OCO4)cc(OC)c1OC [AXL-1717] .
0 (no)

Outcome logged for COc1ncc(-c2ccc3nccc(-c4ccnnc4)c3c2)cc1NS(=O)(=O)c1ccc(F)cc1F [OMIPALISIB] in this assay:
0 (no)

Hey, what did the test say about CNC(=O)c1ccccc1Sc1ccc2c(/C=C/c3ccccn3)n[nH]c2c1 [AXITINIB] ?
0 (no)

Test call for this compound, please: Cn1cc(-c2cnn3c(N)c(Br)c([C@@H]4CCCNC4)nc23)cn1 [SCH-900776]
0 (no)

Tell me the recorded outcome of this test for Cc1cccc(-c2nn3c(c2-c2ccnc4ccc(C(N)=O)cc24)CCC3)n1 [GALUNISERTIB] .
0 (no)

----------
Calls of active or inactive are those of the source.
property label: Kd

Supply Kd measured with Macrophage-stimulating protein receptor (Homo sapiens, UniProt Q04912) for Cc1nc(Nc2n[nH]c3c2CN(C(=O)N[C@H](CN(C)C)c2ccccc2)C3(C)C)c2sccc2n1 [PF-03758309] .
Sequence (Q04912 25-304 limits assumed): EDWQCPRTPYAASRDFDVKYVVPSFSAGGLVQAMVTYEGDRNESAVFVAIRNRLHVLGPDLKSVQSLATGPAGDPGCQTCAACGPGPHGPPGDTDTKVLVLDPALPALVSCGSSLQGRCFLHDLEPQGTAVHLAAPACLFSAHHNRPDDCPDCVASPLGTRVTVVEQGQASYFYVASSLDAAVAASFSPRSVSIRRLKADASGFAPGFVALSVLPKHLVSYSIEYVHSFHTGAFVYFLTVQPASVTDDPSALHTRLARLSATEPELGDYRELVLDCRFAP
Sequence (Q04912 310-1400 limits assumed): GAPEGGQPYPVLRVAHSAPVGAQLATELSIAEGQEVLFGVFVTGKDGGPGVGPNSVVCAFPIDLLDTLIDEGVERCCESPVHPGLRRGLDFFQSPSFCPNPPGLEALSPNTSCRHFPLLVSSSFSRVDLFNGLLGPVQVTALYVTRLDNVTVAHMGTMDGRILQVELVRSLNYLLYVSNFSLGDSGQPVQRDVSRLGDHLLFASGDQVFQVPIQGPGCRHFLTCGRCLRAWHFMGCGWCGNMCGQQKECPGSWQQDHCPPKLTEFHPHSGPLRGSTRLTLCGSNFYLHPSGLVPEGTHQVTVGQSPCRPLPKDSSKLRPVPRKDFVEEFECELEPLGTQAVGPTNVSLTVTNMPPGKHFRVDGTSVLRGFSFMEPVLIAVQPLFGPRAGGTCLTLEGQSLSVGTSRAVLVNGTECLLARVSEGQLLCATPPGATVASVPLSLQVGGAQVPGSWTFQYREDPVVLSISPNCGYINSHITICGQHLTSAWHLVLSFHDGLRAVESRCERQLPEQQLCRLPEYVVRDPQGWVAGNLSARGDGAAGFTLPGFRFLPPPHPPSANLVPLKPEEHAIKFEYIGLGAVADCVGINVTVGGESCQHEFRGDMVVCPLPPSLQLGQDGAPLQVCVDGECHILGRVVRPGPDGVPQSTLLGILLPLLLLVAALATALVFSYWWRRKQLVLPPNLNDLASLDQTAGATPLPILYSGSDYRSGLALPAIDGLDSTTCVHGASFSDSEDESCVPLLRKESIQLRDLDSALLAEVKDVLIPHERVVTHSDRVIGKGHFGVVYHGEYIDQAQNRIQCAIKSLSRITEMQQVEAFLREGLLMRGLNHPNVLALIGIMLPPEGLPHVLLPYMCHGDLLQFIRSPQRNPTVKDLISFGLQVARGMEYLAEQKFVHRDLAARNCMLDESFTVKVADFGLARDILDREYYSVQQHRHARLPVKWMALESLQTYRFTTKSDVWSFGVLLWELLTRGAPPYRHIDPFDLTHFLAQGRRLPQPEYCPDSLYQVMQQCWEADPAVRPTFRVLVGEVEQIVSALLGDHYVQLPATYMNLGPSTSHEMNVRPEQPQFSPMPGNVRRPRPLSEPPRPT
> 30 µM (inactive)

Name the recorded Kd of CNC(=O)c1nn(C)c2c1C(C)(C)Cc1cnc(Nc3ccc(N4CCN(C)CC4)cc3)nc1-2 [MILCICLIB] , assay system Macrophage-stimulating protein receptor (Homo sapiens, UniProt Q04912). Also: in the data inactive means no Kd found up to 30 µM.
1.99 µM (active)

Using Macrophage-stimulating protein receptor (Homo sapiens, UniProt Q04912) as the test system, report measured Kd of Cc1nc2cc(-n3ncc(C(=O)c4cc5ccccc5[nH]4)c3N)ccc2[nH]1 [FGFR INHIBITOR DEBIO 1347] .
> 30 µM (inactive)

Consider the compound CNC(=O)c1cc(Oc2ccc(NC(=O)Nc3cc(C(C)(C)C)nn3-c3ccc4ncccc4c3)c(F)c2)ccn1 [REBASTINIB] tested on Macrophage-stimulating protein receptor (Homo sapiens, UniProt Q04912); state its Kd. Also: in the data inactive means no Kd found up to 30 µM.
0.732 µM (active)

Report its Kd with Macrophage-stimulating protein receptor (Homo sapiens, UniProt Q04912) as the test system: O=C(Nc1nc2cccc(-c3ccc(CN4CCS(=O)(=O)CC4)cc3)n2n1)C1CC1 [FILGOTINIB]
> 30 µM (inactive)

Report its Kd with Macrophage-stimulating protein receptor (Homo sapiens, UniProt Q04912) as the test system: Cc1cnc(NC(=O)Nc2cc(Br)c(C)cc2OC[C@@H]2CNCCO2)cn1 [RABUSERTIB]
> 30 µM (inactive)

----------
# target of assay: Mitogen-activated protein kinase 9 (Homo sapiens); also: in the data inactive means no Kd found up to 30 µM
# Sequence (P45984 whole entry): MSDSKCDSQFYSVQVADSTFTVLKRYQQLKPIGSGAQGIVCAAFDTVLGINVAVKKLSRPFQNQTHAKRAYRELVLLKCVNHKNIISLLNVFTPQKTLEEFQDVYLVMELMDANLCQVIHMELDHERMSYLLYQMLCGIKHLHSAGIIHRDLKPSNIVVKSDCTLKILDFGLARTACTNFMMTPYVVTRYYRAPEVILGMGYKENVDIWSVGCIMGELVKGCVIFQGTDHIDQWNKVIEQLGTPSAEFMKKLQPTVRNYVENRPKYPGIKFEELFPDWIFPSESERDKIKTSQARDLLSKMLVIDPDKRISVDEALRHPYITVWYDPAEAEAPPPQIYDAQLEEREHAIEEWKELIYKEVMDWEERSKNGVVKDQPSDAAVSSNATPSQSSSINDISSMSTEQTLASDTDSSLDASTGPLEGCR
Calls of active or inactive are those of the source.
Returns: one label drawn from 1 (active), -1 (inactive)

Query: recorded result category for CC(=O)c1cnc2ccc(-c3cc(Cl)c(O)c(Cl)c3)nc2c1N[C@H]1CC[C@H](CN(C)C)CC1 in this test
1

Returns: the outcome recorded for Cn1cnc2c(F)c(Nc3ccc(Br)cc3F)c(C(=O)NOCCO)cc21 in this assay.
-1

Identify the outcome logged in this assay for the compound shown: O=C(Cc1ccc(-c2ccc(OCCN3CCOCC3)cc2)cn1)NCc1ccccc1
-1

So what was the verdict on Cc1nc2cc(-n3ncc(C(=O)c4cc5ccccc5[nH]4)c3N)ccc2[nH]1 in this test?
-1

----------
Answer each item with its documented Kd.
Calls of active or inactive are those of the source.

// fetch Kd; item: Cn1cc(-c2cnn3c(N)c(Br)c([C@@H]4CCCNC4)nc23)cn1 ; system: Ribosomal protein S6 kinase alpha-5 (Homo sapiens); also: in the data inactive means no Kd found up to 30 µM
Sequence (O75582 whole entry): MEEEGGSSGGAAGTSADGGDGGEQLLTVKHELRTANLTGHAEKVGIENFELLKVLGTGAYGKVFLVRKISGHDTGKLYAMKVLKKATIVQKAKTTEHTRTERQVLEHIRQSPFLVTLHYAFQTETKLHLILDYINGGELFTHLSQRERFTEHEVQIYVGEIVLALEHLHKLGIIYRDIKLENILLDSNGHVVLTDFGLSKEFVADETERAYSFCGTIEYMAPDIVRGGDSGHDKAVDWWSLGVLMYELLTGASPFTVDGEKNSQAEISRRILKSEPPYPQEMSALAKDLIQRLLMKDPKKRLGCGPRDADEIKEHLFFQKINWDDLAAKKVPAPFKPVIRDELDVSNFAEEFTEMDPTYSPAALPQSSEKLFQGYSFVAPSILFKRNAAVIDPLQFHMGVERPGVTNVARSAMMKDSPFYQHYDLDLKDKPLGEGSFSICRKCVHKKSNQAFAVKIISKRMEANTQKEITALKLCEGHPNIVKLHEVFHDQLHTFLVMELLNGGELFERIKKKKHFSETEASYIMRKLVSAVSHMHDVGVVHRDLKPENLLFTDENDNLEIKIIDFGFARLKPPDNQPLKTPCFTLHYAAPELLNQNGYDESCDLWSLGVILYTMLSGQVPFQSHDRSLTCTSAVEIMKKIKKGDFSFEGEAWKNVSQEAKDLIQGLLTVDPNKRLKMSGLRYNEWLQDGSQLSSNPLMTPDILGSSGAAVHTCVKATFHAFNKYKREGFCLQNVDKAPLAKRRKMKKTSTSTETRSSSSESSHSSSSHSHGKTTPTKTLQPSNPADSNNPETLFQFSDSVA
> 30 µM (inactive)

Fill: Kd (Ribosomal protein S6 kinase alpha-5 (Homo sapiens)) for this compound Cc1nc2cc(-c3nn(C(C)C)c4ncnc(N)c34)ccc2o1
> 30 µM (inactive)

Enter recorded Kd with Ribosomal protein S6 kinase alpha-5 (Homo sapiens) for Cn1ncc(Cl)c1-c1cc(C(=O)N[C@H](CN)Cc2ccc(F)c(F)c2)oc1Cl here.
> 30 µM (inactive)

# return Kd for C[C@@H](NC(=O)c1ncnc(N)c1Cl)c1ncc(C(=O)Nc2cc(C(F)(F)F)c(Cl)cn2)s1 , test system: Ribosomal protein S6 kinase alpha-5 (Homo sapiens); also: in the data inactive means no Kd found up to 30 µM
> 30 µM (inactive)

State the measured Kd (Ribosomal protein S6 kinase alpha-5 (Homo sapiens)) of CNC(=O)c1cccc2cc(Oc3ccnc4cc(OCC5(N)CC5)c(OC)cc34)ccc12
> 30 µM (inactive)

Please respond with reported Kd (system Ribosomal protein S6 kinase alpha-5 (Homo sapiens)) for CO[C@H]1C[C@@H]2CC[C@@H](C)[C@@](O)(O2)C(=O)C(=O)N2CCCC[C@H]2C(=O)O[C@H]([C@H](C)C[C@@H]2CC[C@@H](O)[C@H](OC)C2)CC(=O)[C@H](C)/C=C(\C)[C@@H](O)[C@@H](OC)C(=O)[C@H](C)C[C@H](C)/C=C/C=C/C=C/1C . Also: in the data inactive means no Kd found up to 30 µM.
> 30 µM (inactive)

Report measured Kd on Ribosomal protein S6 kinase alpha-5 (Homo sapiens); entry: Cc1cc(Nc2ncnc3ccc(NC4=NC(C)(C)CO4)cc23)ccc1Oc1ccn2ncnc2c1
> 30 µM (inactive)

----------
# target of assay: Mitogen-activated protein kinase kinase kinase 5 (Homo sapiens); also: in the data inactive means no Kd found up to 30 µM
# Sequence (Q99683 whole entry): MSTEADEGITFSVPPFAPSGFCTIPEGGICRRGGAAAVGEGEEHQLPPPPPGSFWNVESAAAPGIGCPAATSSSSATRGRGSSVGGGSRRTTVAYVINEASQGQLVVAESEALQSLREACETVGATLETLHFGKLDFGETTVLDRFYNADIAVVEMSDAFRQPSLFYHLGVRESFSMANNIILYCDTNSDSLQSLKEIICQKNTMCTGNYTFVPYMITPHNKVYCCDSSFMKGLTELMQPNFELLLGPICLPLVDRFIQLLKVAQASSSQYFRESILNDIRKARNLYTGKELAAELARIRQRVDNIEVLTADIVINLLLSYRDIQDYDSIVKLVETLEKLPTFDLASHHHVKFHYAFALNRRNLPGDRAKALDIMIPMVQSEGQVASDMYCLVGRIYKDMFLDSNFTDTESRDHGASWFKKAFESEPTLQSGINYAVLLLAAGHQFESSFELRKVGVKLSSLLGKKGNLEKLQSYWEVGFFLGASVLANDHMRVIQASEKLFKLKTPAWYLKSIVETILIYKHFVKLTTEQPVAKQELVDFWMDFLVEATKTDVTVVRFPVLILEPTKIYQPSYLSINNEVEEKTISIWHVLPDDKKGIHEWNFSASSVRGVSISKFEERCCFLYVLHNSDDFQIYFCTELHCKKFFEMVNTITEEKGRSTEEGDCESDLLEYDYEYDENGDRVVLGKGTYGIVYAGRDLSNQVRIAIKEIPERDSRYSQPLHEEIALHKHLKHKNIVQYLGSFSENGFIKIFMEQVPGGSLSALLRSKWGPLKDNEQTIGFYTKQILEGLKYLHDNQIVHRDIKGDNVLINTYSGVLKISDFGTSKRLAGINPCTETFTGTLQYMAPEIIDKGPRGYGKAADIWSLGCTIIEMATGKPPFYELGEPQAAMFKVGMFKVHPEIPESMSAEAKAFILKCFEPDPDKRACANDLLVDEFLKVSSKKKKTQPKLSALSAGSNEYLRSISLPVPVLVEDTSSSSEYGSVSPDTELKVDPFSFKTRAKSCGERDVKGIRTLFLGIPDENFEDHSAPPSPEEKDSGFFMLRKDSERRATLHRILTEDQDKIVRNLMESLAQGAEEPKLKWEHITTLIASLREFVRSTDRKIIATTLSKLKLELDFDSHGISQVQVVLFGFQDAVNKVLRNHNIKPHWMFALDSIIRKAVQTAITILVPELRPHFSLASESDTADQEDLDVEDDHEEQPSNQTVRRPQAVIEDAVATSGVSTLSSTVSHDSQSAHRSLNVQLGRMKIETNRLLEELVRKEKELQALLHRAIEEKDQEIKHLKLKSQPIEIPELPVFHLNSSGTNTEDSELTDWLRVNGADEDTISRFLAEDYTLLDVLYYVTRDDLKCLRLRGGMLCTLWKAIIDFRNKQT
The source made the active and inactive calls.
Answer with one of the outcomes t for active, f for inactive

What was the test verdict on C[C@H]1CNCCCN1S(=O)(=O)c1cccc2cncc(F)c12 ?
f

# lookup: test call for Cc1nc(Nc2n[nH]c3c2CN(C(=O)N[C@H](CN(C)C)c2ccccc2)C3(C)C)c2sccc2n1
f

Check the results log: what was the call for Cc1cnc(NC(=O)Nc2cc(Br)c(C)cc2OC[C@@H]2CNCCO2)cn1 ?
f

For CO[C@H]1C[C@@H]2CC[C@@H](C)[C@@](O)(O2)C(=O)C(=O)N2CCCC[C@H]2C(=O)O[C@H]([C@H](C)C[C@@H]2CC[C@@H](O)[C@H](OC)C2)CC(=O)[C@H](C)/C=C(\C)[C@@H](O)[C@@H](OC)C(=O)[C@H](C)C[C@H](C)/C=C/C=C/C=C/1C , what call appears in the results of this test?
f

Lab log entry: C#Cc1cccc(Nc2ncnc3cc(OC)c(OCCCCCCC(=O)NO)cc23)c1 — outcome as called in the assay?
f

So what was the verdict on C=CC(=O)N1CCC[C@H](n2c(=O)n(-c3ccc(Oc4ccccc4)cc3)c3c(N)ncnc32)C1 in this test?
f

I'd appreciate the recorded outcome for CCOc1cc2ncc(C#N)c(Nc3ccc(F)c(Cl)c3)c2cc1NC(=O)/C=C/CN(C)C from this test.
f

For O=C1NC(=O)[C@@H](c2cn3c4c(cccc24)CCC3)[C@@H]1c1c[nH]c2ccccc12 [TIVANTINIB] , what call appears in the results of this test?
f

Record lookup: outcome of this test for N#CC1(c2ccc(NC(=O)c3cccnc3NCc3ccncc3)cc2)CCCC1 ?
f

How did this test come out for C[C@@H](NC(=O)c1ncnc(N)c1Cl)c1ncc(C(=O)Nc2cc(C(F)(F)F)c(Cl)cn2)s1 ?
f

Assay result, entry Cn1ncc(Cl)c1-c1cc(C(=O)N[C@H](CN)Cc2ccc(F)c(F)c2)oc1Cl — outcome?
f

What is the recorded call for this compound in the test? Cc1csc(-c2nnc(Nc3ccc(Oc4ncccc4-c4ccnc(N)n4)cc3)c3ccccc23)c1
t

Which result was noted for this compound in the test: O=C(Cc1ccc(-c2ccc(OCCN3CCOCC3)cc2)cn1)NCc1ccccc1
f

Returns: the outcome recorded for CN1C/C=C/CCOc2cccc(c2)-c2ccnc(n2)Nc2cccc(c2)C1 in this assay.
f

Returns: the outcome recorded for NC(=O)Nc1cc(-c2cccc(F)c2)sc1C(=O)N[C@H]1CCCNC1 in this assay.
f

What call does the record list for CC(=O)c1cnc2ccc(-c3cc(Cl)c(O)c(Cl)c3)nc2c1N[C@H]1CC[C@H](CN(C)C)CC1 ?
t
